Hello, the source for this data is patent US20070185172A1, in case you need it.

Test system: TNF-alpha synthesis and release in human macrophage cell line U937
Assay Remarks: Inhibition of TNF-alpha synthesis and release in LPS-stimulated differentiated U937 cells
Format: cell-based
Run Conditions: U-937, PMA-differentiated U937 cells, 10 ng/ml LPS, 24 hours, TNFα by sandwich ELISA
Measured Parameter: IC50 (nM)
Report as a plain number; the unit nM is understood.

Before answering, review these 3 worked examples.
Compound	Target System	Assay Value
CCCN1C[C@@H]2CC3C4CCC5=CC(=O)C=C[C@]5(C)C4[C@@H](O)C[C@]3(C)[C@]2(C(=O)CO)O1 (stereo partly shown)	TNF-alpha synthesis and release in human macrophage cell line U937	1.16
C[C@]12C=CC(=O)C=C1CCC1C2[C@@H](O)C[C@@]2(C)C1C[C@H]1CN(C3CCCCC3)O[C@]12C(=O)CO (stereo partly shown)	TNF-alpha synthesis and release in human macrophage cell line U937	3.57
CN1C[C@@H]2CC3C4CCC5=CC(=O)C=C[C@]5(C)C4[C@@H](O)C[C@]3(C)[C@]2(C(=O)CO)O1 (stereo partly shown)	TNF-alpha synthesis and release in human macrophage cell line U937	4.95

# value of IC50, TNF-alpha synthesis and release in human macrophage cell line U937, item CCCCN1C[C@@H]2CC3C4CCC5=CC(=O)C=C[C@]5(C)C4[C@@H](O)C[C@]3(C)[C@]2(C(=O)CO)O1 (stereo partly shown) = 0.89
